settings: 25.0 °C
READOUT_NAME: log10 OH rate constant (cm³/molecule/s)
One number for each entry.

Consider the worked cases shown below.
C=C(C)C=CC | -9.87
C=CC=O | -10.7
Fc1ccccc1 | -12.2
C1CCCCC1 | -11.1
C=CCCCCC | -10.4
C=CC(=C)CCC=C(C)C | -9.67
CCCCCCCCCCCCCCCC | -10.6
CC(C)C(C)(C)C | -11.4
CN(C)C | -10.2
CC(C)C(=O)C(C)C | -11.3

Record log10 OH rate constant (cm³/molecule/s) for all entries; do not skip any.
1. FC(F)=C(Cl)Cl
2. CC1=CCC(C(C)C)C=C1 (stereo not drawn)
3. CC(O)CO (stereo not drawn)
4. C1CCSC1
5. CCCSCCC
6. O=CO
7. COCCC(OC)OC

Reply |
[-11.1, -9.5, -10.9, -10.7, -10.7, -12.3, -10.7]

Please state log10 OH rate constant (cm³/molecule/s) for every molecule in the list that follows.
1. CC(F)(F)F
2. CCCCCCCCCCCCC
3. C1=CCCCC=C1
4. FCCl

Reply |
1. -14.8
2. -10.8
3. -9.86
4. -13.4

Batch of 4 molecules: report log10 OH rate constant (cm³/molecule/s) for each.
1. CCC(C)=O
2. Cc1ccc(C)cc1
3. CC(C)(C)C=O
4. CCSC

Reply |
[-11.9, -10.8, -10.6, -11.1]

Each molecule below has a recorded value; state its log10 OH rate constant (cm³/molecule/s).
1. ClC(Cl)Cl
2. Clc1ccc(-c2ccccc2)cc1
3. C=C(C)C
4. CF
5. Cc1cccc([N+](=O)[O-])c1

Reply |
[-13, -11.4, -10.3, -13.8, -12]
